Hello, the source for this data is patent US12233161B1, in case you need it.

system: mice; test: In vivo delivery of FLuc-mRNA lipid nanoparticles in mice, in vivo imaging (IVIS); conditions: Fluc-mRNA LNP; route IV; organ: lung; formulation, molar ratio and N/P as in the table
measuredEndpoint: % of organ targeting
Dear colleague, please send the value followed by its unit.

Query block: Kindly state the measured % of organ targeting obtained for CCCCCCCC(CCCCCCC)OC(=O)CCCNC(=O)C(O)CN(CCN(C)CCN(CC(O)C(=O)NCCCC(=O)OC(CCCCCCC)CCCCCCC)CC(O)C(=O)NCCCC(=O)OC(CCCCCCC)CCCCCCC)CC(O)C(=O)NCCCC(=O)OC(CCCCCCC)CCCCCCC (centres unmarked) with mice.
Result block: 2.23%

Query block: And for CCCCCCCCN(C)C(=O)C(O)CN(CCCN(C)CCCN(CC(O)C(=O)N(C)CCCCCCCC)CC(O)C(=O)N(C)CCCCCCCC)CC(O)C(=O)N(C)CCCCCCCC (centres unmarked) ?
Result block: 96.29%

* * *

test system: mice; assay: In vivo delivery of FLuc-mRNA lipid nanoparticles in mice, in vivo imaging (IVIS); conditions: IV, lung; DMG-PEG2000:DSPC:Chol:compound 1.00:10.00:33.00:56.00, N/P 42; Fluc-mRNA
measuredEndpoint: IVIS

Query block: I have this compound here, CCCCCCC(CCCCCC)C(=O)OCCCCCCOC(=O)C(O)CN(CCCN(C)CCCN(CC(O)C(=O)OCCCCCCOC(=O)C(CCCCCC)CCCCCC)CC(O)C(=O)OCCCCCCOC(=O)C(CCCCCC)CCCCCC)CC(O)C(=O)OCCCCCCOC(=O)C(CCCCCC)CCCCCC (centres unmarked) , and I need its recorded IVIS.
Result block: 1.03E+07

Query block: Repeat with CCCCCCC(CCCCCC)C(=O)OCCCCCCOC(=O)C(O)CN(C)CCN(C)CCN(C)CC(O)C(=O)OCCCCCCOC(=O)C(CCCCCC)CCCCCC (centres unmarked)
Result block: 1.50E+06

Query block: Quick one: CCCCCCCCCCNC(=O)C(O)CN(CCCN(C)CCCN(CC(O)C(=O)NCCCCCCCCCC)CC(O)C(=O)NCCCCCCCCCC)CC(O)C(=O)NCCCCCCCCCC (centres unmarked)
Result block: 3.94E+08

Query block: Do the same for CCCCCCCCCCOC(=O)C(O)CN(CCCN(C)CCCN(CC(O)C(=O)OCCCCCCCCCC)CC(O)C(=O)OCCCCCCCCCC)CC(O)C(=O)OCCCCCCCCCC (centres unmarked) please
Result block: 1.17E+08

Query block: Another: CCCCCCCCCCCCNCC(O)CN(CCCCCN(C)CCCCCN(CC(O)CNCCCCCCCCCCCC)CC(O)C(=O)NCCCCCCCCCCCC)CC(O)C(=O)NCCCCCCCCCCCC (centres unmarked)
Result block: 4.17E+08

* * *

test: Particle size and PDI of nucleic acid lipid nanoparticle preparations by dynamic light scattering; assay type: physicochemical; conditions: DMG-PEG2000:DSPC:Chol:Lipid 1.40:11.15:38.95:48.50, N/P 30, mRNA LNP
Provide the recorded Particle size for the entries that follow.
Reply with just the number (in nm).

Query block: Field request: Particle size | item: CCCCCCCCCCCCOC(=O)C(O)CN(C)CCN(C)CCN(C)CC(O)C(=O)OCCCCCCCCCCCC (stereo not drawn) [Compound L0276]
Result block: 98.58

Query block: Try the molecule CCCCCCC(CCCCCC)C(=O)OCCCCCCOC(=O)C(O)CN(C)CCN(C)CCN(C)CC(O)C(=O)OCCCCCCOC(=O)C(CCCCCC)CCCCCC (stereo not drawn) [Compound L0286]
Result block: 136.97

Query block: Try this molecule next: CCCCCCCCCCCCNC(=O)C(O)CN(CCCCN(C)CCCCN(CC(O)C(=O)NCCCCCCCCCCCC)CC(O)C(=O)NCCCCCCCCCCCC)CC(O)C(=O)NCCCCCCCCCCCC (stereo not drawn) [Compound L0283]
Result block: 99.68

* * *

test system: mice; assay: In vivo delivery of FLuc-mRNA lipid nanoparticles in mice, in vivo imaging (IVIS); details: Fluc-mRNA LNP; route IV; organ: liver; formulation, molar ratio and N/P as in the table
measuredEndpoint: % of organ targeting (%)
Record the value in %, omitting the unit from your answer.

Query block: Give the measured % of organ targeting of CCCCCCCCCCCCCCN(C)C(=O)C(O)CN(CCCN(CC(O)C(=O)N(C)CCCCCCCCCCCCCC)CC(O)C(=O)N(C)CCCCCCCCCCCCCC)CCCN(CC(O)C(=O)N(C)CCCCCCCCCCCCCC)CC(O)C(=O)N(C)CCCCCCCCCCCCCC (centres unmarked) .
Result block: 55.56

Query block: Another compound to look at: CCCCCCCCN(C)C(=O)C(O)CN(CCN(C)CCN(CC(O)C(=O)N(C)CCCCCCCC)CC(O)C(=O)N(C)CCCCCCCC)CC(O)C(=O)N(C)CCCCCCCC (centres unmarked)
Result block: 15.27

Query block: What do you get for CCCCCCCCCCCCNC(=O)C(CN(CCCN(C)CCCN(CC(OC(C)=O)C(=O)NCCCCCCCCCCCC)CC(OC(C)=O)C(=O)NCCCCCCCCCCCC)CC(OC(C)=O)C(=O)NCCCCCCCCCCCC)OC(C)=O (centres unmarked) ?
Result block: 22.33

Query block: And what about the compound CCCCCCCCC(CCCCCC)C(=O)NCCOC(=O)C(O)CN(CCCN(C)CCCN(CC(O)C(=O)OCCNC(=O)C(CCCCCC)CCCCCCCC)CC(O)C(=O)OCCNC(=O)C(CCCCCC)CCCCCCCC)CC(O)C(=O)OCCNC(=O)C(CCCCCC)CCCCCCCC (centres unmarked) ?
Result block: 11.58

Query block: Now the same for CCCCCCCC(CCCCCCC)OC(=O)CCCNC(=O)C(O)CN(CCCN(CC(O)C(=O)NCCCC(=O)OC(CCCCCCC)CCCCCCC)CC(O)C(=O)NCCCC(=O)OC(CCCCCCC)CCCCCCC)CCCN(CC(O)C(=O)NCCCC(=O)OC(CCCCCCC)CCCCCCC)CC(O)C(=O)NCCCC(=O)OC(CCCCCCC)CCCCCCC (centres unmarked)
Result block: 54.57

Query block: Same again, this time with CCCCCCCCC(CCCCCC)C(=O)OCCCCNC(=O)C(O)CN(CCCN(C)CCCN(CC(O)C(=O)NCCCCOC(=O)C(CCCCCC)CCCCCCCC)CC(O)C(=O)NCCCCOC(=O)C(CCCCCC)CCCCCCCC)CC(O)C(=O)NCCCCOC(=O)C(CCCCCC)CCCCCCCC (centres unmarked)
Result block: 14.62

Query block: # repeat for CCCCCCCCN(C)C(=O)C(O)CN(CCCN(CC(O)C(=O)N(C)CCCCCCCC)CC(O)C(=O)N(C)CCCCCCCC)CCCN(CC(O)C(=O)N(C)CCCCCCCC)CC(O)C(=O)N(C)CCCCCCCC (centres unmarked)
Result block: 44.24

Query block: Repeat for the following compound: CCCCCCC(CCCCCC)C(=O)OCCCCCCNC(=O)C(O)CN(CCN(C)CCN(CC(O)C(=O)NCCCCCCOC(=O)C(CCCCCC)CCCCCC)CC(O)C(=O)NCCCCCCOC(=O)C(CCCCCC)CCCCCC)CC(O)C(=O)NCCCCCCOC(=O)C(CCCCCC)CCCCCC (centres unmarked)
Result block: 33.50

* * *

tested on: mice; test: In vivo delivery of FLuc-mRNA lipid nanoparticles in mice, in vivo imaging (IVIS); conditions: Fluc-mRNA LNP; route IV; organ: lung; formulation, molar ratio and N/P as in the table
Give % of organ targeting for every item shown.
Respond numerically; units are % and should not be typed.

Query block: Kindly state the measured % of organ targeting obtained for CCCCCCC(CCCCCC)C(=O)OCCCCCCNC(=O)C(O)CN(CCN(C)CCN(CC(O)C(=O)NCCCCCCOC(=O)C(CCCCCC)CCCCCC)CC(O)C(=O)NCCCCCCOC(=O)C(CCCCCC)CCCCCC)CC(O)C(=O)NCCCCCCOC(=O)C(CCCCCC)CCCCCC (stereo not drawn) with mice.
Result block: 6.37

Query block: Further, for CCCCCCCCC(CCCCCC)C(=O)OCCCCNC(=O)C(O)CN(CCCN(CC(O)C(=O)NCCCCOC(=O)C(CCCCCC)CCCCCCCC)CC(O)C(=O)NCCCCOC(=O)C(CCCCCC)CCCCCCCC)CCCN(CC(O)C(=O)NCCCCOC(=O)C(CCCCCC)CCCCCCCC)CC(O)C(=O)NCCCCOC(=O)C(CCCCCC)CCCCCCCC (stereo not drawn) ?
Result block: 0.60

Query block: Cool, now CCCCCCCCCCCCCCN(C)C(=O)C(O)CN(CCCN(CC(O)C(=O)N(C)CCCCCCCCCCCCCC)CC(O)C(=O)N(C)CCCCCCCCCCCCCC)CCCN(CC(O)C(=O)N(C)CCCCCCCCCCCCCC)CC(O)C(=O)N(C)CCCCCCCCCCCCCC (stereo not drawn)
Result block: 1.75
